target: UniProt P22001; assay: Relative T cell IC50 compared to IC50 for correolide assay; type: functional, cell-based
Readout: Ratio

Compound | Observed value
CCOc1ccccc1[C@H](C)CC1(O)C(C)=C[C@@H](OC(C)=O)[C@@]2(C)C1CC[C@]1(C)C2[C@H](OC(C)=O)[C@H](OC(C)=O)[C@@]2([C@@H](C)OC(C)=O)COCC=CC12 (stereo partly drawn) | 15

1 = C=C(CC1(O)C(C)=C[C@@H](OC(C)=O)[C@@]2(C)C1CC[C@]1(C)C2[C@H](OC(C)=O)[C@H](OC(C)=O)[C@@]2([C@@H](C)OC(C)=O)COCC=CC12)c1ccccc1OC (stereo partly drawn)
2 = CC(=O)O[C@H]1C2[C@@](C)(CCC3C(O)(CCc4ccccc4C(F)(F)F)C(C)=C[C@@H](OC(C)=O)[C@@]32C)C2C=CCOC[C@]2([C@@H](C)OC(C)=O)[C@H]1OC(C)=O (stereo partly drawn)
When 1 and 2 are compared, which has the higher number for Ratio? Provide the label of your selected option as the answer.
1
(1: 3.6, 2: 0.1)

---

target: UniProt P22001; assay: Inhibitory activity against voltage-gated potassium channel subunit Kv1.3 of human T cells; type: functional, cell-based, T-cell
Readout: IC50 (nM)

Sample records with IC50:
Compound | Uom | IC50
C=C(CC1(O)C(C)=C[C@@H](OC(C)=O)[C@@]2(C)C1CC[C@]1(C)C2[C@H](OC(C)=O)[C@H](OC(C)=O)[C@@]2([C@@H](C)OC(C)=O)COCC=CC12)c1ccccc1CC (stereo not given in full) | nM | 25.5
CC(=O)O[C@H]1C2[C@@](C)(CCC3C(O)(C[C@@H](C)c4ccccc4)C(C)=C[C@@H](OC(C)=O)[C@@]32C)C2C=CCOC[C@]2([C@@H](C)OC(C)=O)[C@H]1OC(C)=O (stereo not given in full) | nM | 102
CC(=O)O[C@H]1C2[C@@](C)(CCC3C(O)(CCc4ccccc4F)C(C)=C[C@@H](OC(C)=O)[C@@]32C)C2C=CCOC[C@]2([C@@H](C)OC(C)=O)[C@H]1OC(C)=O (stereo not given in full) | nM | 245
CCc1ccccc1[C@H](C)CC1(O)C(C)=C[C@@H](OC(C)=O)[C@@]2(C)C1CC[C@]1(C)C2[C@H](OC(C)=O)[C@H](OC(C)=O)[C@@]2([C@@H](C)OC(C)=O)COCC=CC12 (stereo not given in full) | nM | 36.8
C=C(CC1(O)C(C)=C[C@@H](OC(C)=O)[C@@]2(C)C1CC[C@]1(C)C2[C@H](OC(C)=O)[C@H](OC(C)=O)[C@@]2([C@@H](C)OC(C)=O)COCC=CC12)c1ccccc1SC (stereo not given in full) | nM | 14.7

1 = CC(=O)O[C@H]1C2[C@@](C)(CCC3C(O)(CCc4ccccc4C)C(C)=C[C@@H](OC(C)=O)[C@@]32C)C2C=CCOC[C@]2([C@@H](C)OC(C)=O)[C@H]1OC(C)=O (stereo not given in full)
2 = C=C(CC1(O)C(C)=C[C@@H](OC(C)=O)[C@@]2(C)C1CC[C@]1(C)C2[C@H](OC(C)=O)[C@H](OC(C)=O)[C@@]2([C@@H](C)OC(C)=O)COCC=CC12)c1ccccc1SCC (stereo not given in full)
When 1 and 2 are compared, which has the higher number for IC50? Provide the label of your selected option as the answer.
1
(1: 194 nM, 2: 31.7 nM)

---

biological target: Potassium voltage-gated channel subfamily A member 3 (Homo sapiens); assay: Inhibition of voltage-gated potassium channel subunit Kv1.3 in chinese hamster ovary cells; type: functional, cell-based
pIC50: −log10 of the molar value.
Readout: pIC50

Sample records with pIC50:
Molecule | System tested | pIC50
CC(=O)O[C@H]1C2[C@@](C)(CCC3C(O)(CCCCc4ccccc4)C(C)=C[C@@H](OC(C)=O)[C@@]32C)C2C=CCOC[C@]2([C@@H](C)OC(C)=O)[C@H]1OC(C)=O (some centres undefined) | Potassium voltage-gated channel subfamily A member 3 (Homo sapiens) | 6.57
C=C(CC1(O)C(C)=C[C@@H](OC(C)=O)[C@@]2(C)C1CC[C@]1(C)C2[C@H](OC(C)=O)[C@H](OC(C)=O)[C@@]2([C@@H](C)OC(C)=O)COCC=CC12)c1ccccc1OC (some centres undefined) | Potassium voltage-gated channel subfamily A member 3 (Homo sapiens) | 7.96
CC(=O)O[C@H]1C2[C@@](C)(CCC3C(O)(C[C@H](C)c4ccccc4)C(C)=C[C@@H](OC(C)=O)[C@@]32C)C2C=CCOC[C@]2([C@@H](C)OC(C)=O)[C@H]1OC(C)=O (some centres undefined) | Potassium voltage-gated channel subfamily A member 3 (Homo sapiens) | 6.92

I = CC(=O)O[C@H]1C2[C@@](C)(CCC3C(O)(CC(C)(C)c4ccccc4)C(C)=C[C@@H](OC(C)=O)[C@@]32C)C2C=CCOC[C@]2([C@@H](C)OC(C)=O)[C@H]1OC(C)=O (some centres undefined)
II = CC(=O)O[C@H]1C2[C@@](C)(CCC3C(O)(CCc4ccccc4F)C(C)=C[C@@H](OC(C)=O)[C@@]32C)C2C=CCOC[C@]2([C@@H](C)OC(C)=O)[C@H]1OC(C)=O (some centres undefined)
III = C=C(CC1(O)C(C)=C[C@@H](OC(C)=O)[C@@]2(C)C1CC[C@]1(C)C2[C@H](OC(C)=O)[C@H](OC(C)=O)[C@@]2([C@@H](C)OC(C)=O)COCC=CC12)c1ccccc1S(=O)OC (some centres undefined)
IV = CC(=O)O[C@H]1C2[C@@](C)(CCC3C(O)(C[C@@H](C)c4ccccc4)C(C)=C[C@@H](OC(C)=O)[C@@]32C)C2C=CCOC[C@]2([C@@H](C)OC(C)=O)[C@H]1OC(C)=O (some centres undefined)
List these items ordered by pIC50, big to small. // list labels; follow requested order
IV, I, II, III

P = C=CC[C@H](CC1(O)C(C)=C[C@@H](OC(C)=O)[C@@]2(C)C1CC[C@]1(C)C2[C@H](OC(C)=O)[C@H](OC(C)=O)[C@@]2([C@@H](C)OC(C)=O)COCC=CC12)c1ccccc1CC (some centres undefined)
Q = C=CC[C@H](CC1(O)C(C)=C[C@@H](OC(C)=O)[C@@]2(C)C1CC[C@]1(C)C2[C@H](OC(C)=O)[C@H](OC(C)=O)[C@@]2([C@@H](C)OC(C)=O)COCC=CC12)c1ccccc1OC (some centres undefined)
R = C=C1C[C@@]2(O)C3CC[C@]4(C)C([C@H](OC(C)=O)[C@H](OC(C)=O)[C@@]5([C@@H](C)OC(C)=O)COC(=O)C=CC45)[C@@]3(C)[C@H](OC(C)=O)[C@H](OC(C)=O)[C@@]2(C)C2(C(=O)OC)O[C@H]12 (some centres undefined)
S = CC(=O)O[C@H]1C2[C@@](C)(CCC3C(O)(c4ccccc4)C(C)=C[C@@H](OC(C)=O)[C@@]32C)C2C=CCOC[C@]2([C@@H](C)OC(C)=O)[C@H]1OC(C)=O (some centres undefined)
T = C=C(CC1(O)C(C)=C[C@@H](OC(C)=O)[C@@]2(C)C1CC[C@]1(C)C2[C@H](OC(C)=O)[C@H](OC(C)=O)[C@@]2([C@@H](C)OC(C)=O)COCC=CC12)c1ccccc1[S+](C)[O-] (stereo in doubt; 35)
Please put the entries in order of rising pIC50. // list labels; follow requested order
S, T, R, P, Q

a = CCOc1ccccc1[C@H](C)CC1(O)C(C)=C[C@@H](OC(C)=O)[C@@]2(C)C1CC[C@]1(C)C2[C@H](OC(C)=O)[C@H](OC(C)=O)[C@@]2([C@@H](C)OC(C)=O)COCC=CC12 (some centres undefined)
b = C=C(CC1(O)C(C)=C[C@@H](OC(C)=O)[C@@]2(C)C1CC[C@]1(C)C2[C@H](OC(C)=O)[C@H](OC(C)=O)[C@@]2([C@@H](C)OC(C)=O)COCC=CC12)c1ccccc1[S+](C)[O-] (stereo in doubt; 34)
When a and b are compared, which has the higher number for pIC50? Provide the label of your selected option as the answer.
a
(a: 7.43, b: 6.84)

---

target: Potassium voltage-gated channel subfamily A member 3 (Homo sapiens, UniProt P22001); assay: Inhibitory activity against voltage-gated potassium channel subunit Kv1.3 of human T cells; format: functional, cell-based, T-cell
Sequence (P22001 whole entry): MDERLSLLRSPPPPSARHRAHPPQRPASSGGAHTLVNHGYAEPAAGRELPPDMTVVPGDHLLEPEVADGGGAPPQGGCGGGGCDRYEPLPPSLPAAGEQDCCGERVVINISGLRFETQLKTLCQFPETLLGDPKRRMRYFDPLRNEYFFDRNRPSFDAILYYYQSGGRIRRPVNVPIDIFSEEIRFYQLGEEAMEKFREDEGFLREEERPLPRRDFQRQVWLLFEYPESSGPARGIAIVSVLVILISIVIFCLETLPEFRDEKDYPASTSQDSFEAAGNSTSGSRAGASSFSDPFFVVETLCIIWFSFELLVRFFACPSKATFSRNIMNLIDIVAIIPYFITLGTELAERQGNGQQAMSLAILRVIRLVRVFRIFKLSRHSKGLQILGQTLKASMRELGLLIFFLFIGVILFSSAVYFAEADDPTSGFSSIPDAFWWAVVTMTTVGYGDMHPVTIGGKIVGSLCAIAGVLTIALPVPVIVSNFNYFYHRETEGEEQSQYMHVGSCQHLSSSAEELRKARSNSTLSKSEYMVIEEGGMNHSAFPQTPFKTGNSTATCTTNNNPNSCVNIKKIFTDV
Readout: IC50 (nM)

Compound | Uom | Observed value
CC[C@H](CC1(O)C(C)=C[C@@H](OC(C)=O)[C@@]2(C)C1CC[C@]1(C)C2[C@H](OC(C)=O)[C@H](OC(C)=O)[C@@]2([C@@H](C)OC(C)=O)COCC=CC12)c1ccccc1OC (some centres not stated) | nM | 29.2
CC(=O)O[C@H]1C2[C@@](C)(CCC3C(O)(CCc4ccccc4C(F)(F)F)C(C)=C[C@@H](OC(C)=O)[C@@]32C)C2C=CCOC[C@]2([C@@H](C)OC(C)=O)[C@H]1OC(C)=O (some centres not stated) | nM | 1840
CCOc1ccccc1CCC1(O)C(C)=C[C@@H](OC(C)=O)[C@@]2(C)C1CC[C@]1(C)C2[C@H](OC(C)=O)[C@H](OC(C)=O)[C@@]2([C@@H](C)OC(C)=O)COCC=CC12 (some centres not stated) | nM | 80
CCOc1ccccc1[C@H](C)CC1(O)C(C)=C[C@@H](OC(C)=O)[C@@]2(C)C1CC[C@]1(C)C2[C@H](OC(C)=O)[C@H](OC(C)=O)[C@@]2([C@@H](C)OC(C)=O)COCC=CC12 (some centres not stated) | nM | 12.3

a = CC(=O)O[C@H]1C2[C@@](C)(CCC3C(O)(CC(C)(C)c4ccccc4)C(C)=C[C@@H](OC(C)=O)[C@@]32C)C2C=CCOC[C@]2([C@@H](C)OC(C)=O)[C@H]1OC(C)=O (some centres not stated)
b = C=C(CC1(O)C(C)=C[C@@H](OC(C)=O)[C@@]2(C)C1CC[C@]1(C)C2[C@H](OC(C)=O)[C@H](OC(C)=O)[C@@]2([C@@H](C)OC(C)=O)COCC=CC12)c1ccccc1OC (some centres not stated)
// pick min by IC50: a , b Provide the label of your selected option as the answer.
b
